tested on: Enterococcus faecium; experiment: Antibacterial activity against vancomycin-resistant Enterococcus faecium 03080 DS; type: functional
Collected MIC values appear next to each entry.
Field: numeric (µg/mL). Do not append units.

Here are 4 compounds together with their reported answers.
{"compound": "CC(=O)NC[C@H]1CN(c2ccc(-c3ccc4c(c3)CC3(C(=O)NC(=O)NC3=O)C3CCCCN43)c(F)c2)C(=O)O1 (stereo not given in full)", "measurement target": "Enterococcus faecium", "experimental endpoint": "MIC", "u": "µg/mL", "assay value": 1}
{"compound": "CC(=O)NC[C@H]1CN(c2ccc(N3CCOCC3)c(F)c2)C(=O)O1", "measurement target": "Enterococcus faecium", "experimental endpoint": "MIC", "u": "µg/mL", "assay value": 2}
{"compound": "CC(=O)NC[C@H]1CN(c2ccc(-c3ccc4c(c3)CC3(C(=O)NC(=O)NC3=O)C3CCCN43)c(F)c2)C(=O)O1 (stereo not given in full)", "measurement target": "Enterococcus faecium", "experimental endpoint": "MIC", "u": "µg/mL", "assay value": 2}
{"compound": "O=C1NC(=O)C2(Cc3cc(-c4ccc(N5C[C@H](CO)OC5=O)cc4F)ccc3N3CCCCC32)C(=O)N1 (stereo not given in full)", "measurement target": "Enterococcus faecium", "experimental endpoint": "MIC", "u": "µg/mL", "assay value": 1}

Hello, please tell me recorded MIC for this one: COC(=O)NC[C@H]1CN(c2ccc(-c3ccc4c(c3)CC3(C(=O)NC(=O)NC3=O)C3CCCN43)c(F)c2)C(=O)O1 (stereo not given in full)
8
